Measured IC50, listed per entry.
Assay: Compound was evaluated for the inhibition of the binding of [3H]-CPP against NMDA receptor in mice

- smi: "O=C(O)c1ncccc1CCP(=O)(O)O"
  IC50: "3500 nM"
- smi: "O=C(O)[C@@H]1C[C@H](CP(=O)(O)O)CCN1"
  IC50: "95 nM"
- smi: "O=C(O)[C@H]1NCCC[C@H]1CCP(=O)(O)O"
  IC50: "1000 nM"

====

Test: Compound was evaluated for the inhibition of the binding of [3H]CPP against NMDA in mice
pIC50: −log10 of the molar value.

- molecule: "NC(CCCCCP(=O)(O)O)C(=O)O (stereo unspecified)"
  pIC50: 6.49

====

Assay: Compound was evaluated for the inhibition of the binding of [3H]CPP against N-methyl-D-aspartate glutamate receptor in mice
pIC50: −log10 of the molar value.

- compound: "O=C(O)[C@@H]1C[C@H](CCCP(=O)(O)O)CCN1"
  pIC50: 6.92
- compound: "O=C(O)[C@@H]1C[C@H](CCP(=O)(O)O)CCN1"
  pIC50: 5.18
- compound: "O=C(O)c1cc(CCP(=O)(O)O)ccn1"
  pIC50: 5.46
- compound: "O=C(O)C1CN(CCCP(=O)(O)O)CCN1 (centres undefined)"
  pIC50: 7.14

====

Reported Displacement by item:
Experiment: Percent displacement determined by inhibition of [3H]-CPP binding against N-methyl-D-aspartate glutamate receptor in mice at 10 uM
measurement_type: Displacement (%)

- smi: "O=C(O)c1ncccc1/C=C\\P(=O)(O)O"
  result_unit: "%"
  recorded_number: 20
- smi: "O=C(O)[C@@H]1C[C@H](CCCCP(=O)(O)O)CCN1"
  result_unit: "%"
  recorded_number: 26
- smi: "O=C(O)c1ncccc1/C=C/P(=O)(O)O"
  result_unit: "%"
  recorded_number: 26
- smi: "O=C(O)c1cc(CCCP(=O)(O)O)ccn1"
  result_unit: "%"
  recorded_number: 34
- smi: "O=C(O)[C@H]1NCCC[C@H]1CP(=O)(O)O"
  result_unit: "%"
  recorded_number: 19
- smi: "O=C(O)c1cc(CCCCP(=O)(O)O)ccn1"
  result_unit: "%"
  recorded_number: 25
